# Test system: HOP-62 NSCLC
# assay comment: NCI-60 one-dose screen, 48 h (100 = growth as untreated, 0 = no growth, -100 = all killed)
# condition set: 10 µM unless noted
The panel holds about 83,000 compounds, 20% with a hit somewhere; the sample as a whole holds those more often.
Catalogue of growth readings, one per entry.
Unit % implied. Number only.

### Prompt Entry N#Cc1c(O)c2c(c(O)c1C#N)C(=O)c1ccccc1C2=O : reported growth = ?
### Response 59.8

### Prompt Entry CSc1ccc(OC(C)=O)cc1C : reported growth = ?
### Response 79.4

### Prompt Entry O=c1ccc2ccccc2o1 : reported growth = ?
### Response 108

### Prompt Entry CCOC(=O)c1sc(NC(=O)CN2CCC(Cc3ccccc3)CC2)nc1C : reported growth = ?
### Response 102

### Prompt Entry COc1ccc(-n2ncc3c4nc(OC)c(S(=O)(=O)c5ccccc5)cc4ccc32)cc1 : reported growth = ?
### Response 47.5

### Prompt Entry CCCOC(=O)c1ccc2c(c1)[N+](=O)C(C(=O)c1ccccc1)=C(C(F)(F)F)[N+]2=O : reported growth = ?
### Response -96.5

### Prompt Entry O=C(Nc1ccc(F)cc1)c1ccc(C(=O)Nc2ccc(F)cc2)cc1 : reported growth = ?
### Response 98.2

### Prompt Entry CC1SC(c2ccc(Cl)cc2)N(CCc2cccs2)C1=O (stereo not drawn) : reported growth = ?
### Response 15.2

Reference source: PubChem BioAssay (NCI)
